Hello, the source for this data is ChEMBL document CHEMBL1124938, in case you need it.

system: Rattus norvegicus; assay: Total antihypertensive activity was obtained from the area between compound and control MAP (mean arterial pressure) curves, after (ip) 30 mg/kg administration in spontaneously hypertensive rats (SHR).; type: functional, Artery
Entries and their measured Activity follow.
Quantity: Activity

> print(dat)
                                   compound  value.reported
1  CN(C)CC(=O)N1C=CC(C)(C)C=C1.O=C(O)/C=C\C(=O)O      132 mmHg·h
2                 COC(=O)CCN1C=CC(C)(C)C=C1     1360 mmHg·h
3                COC(=O)CCCN1C=CC(C)(C)C=C1      696 mmHg·h
4               COC(=O)CCCCN1C=CC(C)(C)C=C1      943 mmHg·h

----------
Entries and their measured Max change in blood pressure follow.
test system: Rattus norvegicus; assay: Antihypertensive effects in conscious, unrestrained, spontaneously hypertensive rats after 30 mg/kg i.p. administration.; assay type: functional; settings: route intraperitoneal
Quantity: Max change in blood pressure

> print(dat)
                                    molecule                      quantity  value.reported
 1            CC1(C)C=CN(C(=O)Nc2ccccc2)C=C1  Max change in blood pressure        -24 mmHg
 2     CNC(=O)N1C=CC(c2ccccc2)(c2ccccc2)C=C1  Max change in blood pressure         17 mmHg
 3               COC(=O)CCCCN1C=CC(C)(C)C=C1  Max change in blood pressure        -58 mmHg
 4     CN(C)CCN1C=CC(c2ccccc2)(c2ccccc2)C=C1  Max change in blood pressure        -30 mmHg
 5  CC1(C)C=CN(/C(=N/c2ccccc2)N2CCCC2)C=C1.O=C(O)/C=C\C(=O)O  Max change in blood pressure         27 mmHg
 6  COC(=O)CCCN1C=CC(c2ccc(OC)cc2)(c2ccc(OC)cc2)C=C1  Max change in blood pressure         11 mmHg
 7                   CN(C)CCN1C=CC(C)(C)C=C1  Max change in blood pressure        -32 mmHg
 8                   CNC(=O)N1C=CC(C)(C)C=C1  Max change in blood pressure        -34 mmHg
 9           CC1(C)C=CN(C(=O)c2ccc[nH]2)C=C1  Max change in blood pressure          6 mmHg
10      COc1ccc(CC(=O)N2C=CC(C)(C)C=C2)cc1OC  Max change in blood pressure        -21 mmHg
11  COc1ccc(CCN2C=CC(c3ccccc3)(c3ccccc3)C=C2)cc1OC  Max change in blood pressure         -7 mmHg
12  COC(=O)C1=C(C)NC(C)=C(C(=O)OC)C1c1ccccc1[N+](=O)[O-] [NIFEDIPINE]  Max change in blood pressure        -71 mmHg
13             CC1(C)C=CN(C(=O)c2cccnc2)C=C1  Max change in blood pressure        -19 mmHg
14             CC1(C)C=CN(C(=O)c2ccccc2)C=C1  Max change in blood pressure        -21 mmHg
15                Cc1csc(N2C=CC(C)(C)C=C2)n1  Max change in blood pressure         14 mmHg
